- test_description: total protein half-life in vivo (active degradation + dilution); higher = more stable protein
- experimental_parameters: wild type E. coli NCM3722; growth: P-lim chemostat; doubling time 6 h
Assign condition met whenever total protein half-life in vivo does not fall below 5 h; assign condition not met whenever it does.

biopolymer_sequence	assigned_category
MDYVCSVVFICQSFDLIINRRVISFKKNSLFIVSDKIRRELPVCPSKLRIVDIDKKTCLSFFIDVNNELPGKFTLDKNGYIAEEEPPLSLVFSLFEGIKIADSHSLWLKERLCISLLAMFKKRESVNSFILTNINTFTCKITGIISFNIERQWHLKDIAELIYTSESLIKKRLRDEGTSFTEILRDTRMRYAKKLITSNSYSINVVAQKCGYNSTSYFICAFKDYYGVTPSHYFEKIIGVTDGINKTID	condition not met
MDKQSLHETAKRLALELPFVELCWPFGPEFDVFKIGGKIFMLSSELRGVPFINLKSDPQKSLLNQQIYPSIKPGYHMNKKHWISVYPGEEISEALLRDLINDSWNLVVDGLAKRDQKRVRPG [P0AAT2]	condition not met
MKILVTGGAGFIGSAVVRHIINNTQDSVVNVDKLTYAGNRESLADVSDSERYVFEHADICDAPAMARIFAQHQPDAVMHLAAESHVDRSITGPAAFIETNIVGTYVLLEAARNYWSALDSDKKNSFRFHHISTDEVYGDLPHPDEVNNTEELPLFTETTAYAPSSPYSASKASSDHLVRAWKRTYGLPTIVTNCSNNYGPYHFPEKLIPLVILNALEGKALPIYGKGDQIRDWLYVEDHARALYTVVTEGKAGETYNIGGHNEKKNIDVVLTICDLLDEIVPKEKSYREQITYVADRPGHDRRYAIDAEKIGRALGWKPQETFESGIRKTVEWYLSNTKWVDNVKSGAYQSWIEQNYEGRQ	condition met
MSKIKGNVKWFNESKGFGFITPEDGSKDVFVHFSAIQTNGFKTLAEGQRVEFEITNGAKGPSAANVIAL [P0A972]	condition not met
MSQNLDATAINQIHALISAQGVNEIISKIGADAVALPENFRIHDLEKFNLNRFRFRGALSTASIDDFTRYSKDLADEGTRCFIDADNMRAVSVLNLGTIDEPGHADNTATLKLKKTAPFSALLSVNGERNSQKSLAEWIEDWADYLVGFDANGDAIQATKAAAAIRKITIEANQTADFEDNDFSGKRSLMESVEAKTKDIMPVAFEFKCVPFEGLKERPFKLRLSIITGDRPVLVLRIIQLEAVQEDMANEFRDLLVEKFKDSKVETFIGTFTA	condition met
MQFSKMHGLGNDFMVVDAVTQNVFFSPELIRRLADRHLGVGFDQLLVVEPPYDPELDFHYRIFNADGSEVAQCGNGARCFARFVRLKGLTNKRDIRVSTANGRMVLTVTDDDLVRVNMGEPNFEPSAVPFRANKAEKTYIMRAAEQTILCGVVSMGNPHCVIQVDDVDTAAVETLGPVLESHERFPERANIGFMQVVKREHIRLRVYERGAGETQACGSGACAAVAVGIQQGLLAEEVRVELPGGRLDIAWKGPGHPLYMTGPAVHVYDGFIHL [P0A6K1]	condition met
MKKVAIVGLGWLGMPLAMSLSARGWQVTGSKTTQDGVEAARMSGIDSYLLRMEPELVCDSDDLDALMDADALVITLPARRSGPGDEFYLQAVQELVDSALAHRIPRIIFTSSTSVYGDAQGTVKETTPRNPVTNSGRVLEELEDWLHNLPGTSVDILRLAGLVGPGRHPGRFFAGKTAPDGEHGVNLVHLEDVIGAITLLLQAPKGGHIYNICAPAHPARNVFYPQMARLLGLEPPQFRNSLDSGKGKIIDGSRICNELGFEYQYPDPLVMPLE [P0AD12]	condition met
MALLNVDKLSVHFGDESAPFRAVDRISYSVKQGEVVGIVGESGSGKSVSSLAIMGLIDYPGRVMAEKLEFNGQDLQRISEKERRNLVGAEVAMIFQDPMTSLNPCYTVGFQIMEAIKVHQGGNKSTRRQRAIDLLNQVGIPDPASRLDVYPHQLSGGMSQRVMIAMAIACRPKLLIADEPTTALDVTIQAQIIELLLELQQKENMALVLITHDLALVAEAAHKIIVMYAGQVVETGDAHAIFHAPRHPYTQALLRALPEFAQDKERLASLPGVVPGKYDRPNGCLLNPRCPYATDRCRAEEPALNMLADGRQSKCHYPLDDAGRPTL [P0AAG0]	condition met
MAIRLYKLAVALGVFIVSAPAFSHGHHSHGKPLTEVEQKAANGVFDDANVQNRTLSDWDGVWQSVYPLLQSGKLDPVFQKKADADKTKTFAEIKDYYHKGYATDIEMIGIEDGIVEFHRNNETTSCKYDYDGYKILTYKSGKKGVRYLFECKDPESKAPKYIQFSDHIIAPRKSSHFHIFMGNDSQQSLLNEMENWPTYYPYQLSSEEVVEEMMSH	condition met
MVDQAQDTLRPNNRLSDMQATMEQTQAFENRVLERLNAGKTVRSFLITAVELLTEAVNLLVLQVFRKDDYAVKYAVEPLLDGDGPLGDLSVRLKLIYGLGVINRQEYEDAELLMALREELNHDGNEYAFTDDEILGPFGELHCVAALPPPPQFEPADSSLYAMQIQRYQQAVRSTMVLSLTELISKISLKKAFQK [P0AF10]	condition not met
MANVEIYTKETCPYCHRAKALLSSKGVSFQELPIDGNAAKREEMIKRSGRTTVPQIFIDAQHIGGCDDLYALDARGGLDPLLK [P0AC62]	condition met
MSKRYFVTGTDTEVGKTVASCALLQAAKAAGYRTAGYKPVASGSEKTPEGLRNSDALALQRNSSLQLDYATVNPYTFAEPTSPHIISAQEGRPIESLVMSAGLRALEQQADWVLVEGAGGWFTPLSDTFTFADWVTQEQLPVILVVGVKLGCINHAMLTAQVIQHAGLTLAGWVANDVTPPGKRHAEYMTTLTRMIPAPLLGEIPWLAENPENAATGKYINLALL	condition met

Data origin: the supplement of paper PMC11246515
